The values you see were collected from patent US7235366.

- EXPERIMENTAL_TARGET: T1, mouse kappa opioid receptor (mORK1, msl-1) (Mus musculus)
- T1 chain: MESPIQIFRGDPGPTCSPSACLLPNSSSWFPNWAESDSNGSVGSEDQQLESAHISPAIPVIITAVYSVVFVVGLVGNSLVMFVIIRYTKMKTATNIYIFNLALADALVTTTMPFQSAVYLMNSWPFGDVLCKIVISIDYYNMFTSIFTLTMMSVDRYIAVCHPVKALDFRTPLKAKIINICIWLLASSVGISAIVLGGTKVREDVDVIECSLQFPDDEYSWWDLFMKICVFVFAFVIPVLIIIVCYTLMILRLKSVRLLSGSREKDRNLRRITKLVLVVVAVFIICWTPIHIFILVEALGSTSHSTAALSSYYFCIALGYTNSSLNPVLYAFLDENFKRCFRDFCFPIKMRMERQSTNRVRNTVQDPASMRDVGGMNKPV
- PROTOCOL_DETAILS: competition
Positions of bridges follow the written chain, without caps; N, C: chain ends. No end group written: not given here.
OBSERVATION_TYPE: IC50

Q) Can you share its IC50? I mean this binder: SANSNPAMAPRERKAGCKNFFWKTFTSC (disulfide 17-28 (inferred)) [SRIF]
A) > 1000 nM
